Non-standard residues stand in square brackets, D forms with d. Residues, ends and D or L forms follow the SMILES beside them. Arg(Me) = CNC(=N)NCCC[C@H](N)C(=O)O; 4Pal = N[C@@H](Cc1ccncc1)C(=O)O; azaGly = NNC(=O)O
IC50 tested on KiSS-1 receptor (Rattus norvegicus): recorded values
Sequence (Q924U1 whole entry): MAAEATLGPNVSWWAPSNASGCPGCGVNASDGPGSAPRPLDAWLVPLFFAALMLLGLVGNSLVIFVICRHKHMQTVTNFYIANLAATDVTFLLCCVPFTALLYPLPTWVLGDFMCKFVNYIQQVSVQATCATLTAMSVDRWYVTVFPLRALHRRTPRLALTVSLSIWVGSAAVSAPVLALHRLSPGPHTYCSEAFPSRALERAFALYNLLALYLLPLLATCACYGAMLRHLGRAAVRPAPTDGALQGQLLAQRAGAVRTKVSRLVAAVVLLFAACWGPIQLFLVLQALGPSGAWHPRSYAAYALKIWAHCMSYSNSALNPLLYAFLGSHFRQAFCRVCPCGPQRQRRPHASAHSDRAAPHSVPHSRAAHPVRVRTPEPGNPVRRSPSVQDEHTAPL

compound: CNC(N)=NCCC[C@H](NC(=O)[C@H](CC(C)C)NC(=O)NNC(=O)[C@H](Cc1ccccc1)NC(=O)[C@H](CO)NC(=O)[C@H](CC(N)=O)NC(=O)[C@H](Cc1ccncc1)NC(=O)[C@H](CC(N)=O)NC(=O)[C@H](N)Cc1ccc(O)cc1)C(=O)N[C@@H](Cc1ccccc1)C(N)=O (H-[dY]N[4Pal]NSF[azaGly]L[Arg(Me)]F-NH2)
IC50 [pM]: 280
//
compound: CC[C@H](C)[C@H](NC(=O)[C@H](CC(N)=O)NC(=O)[C@H](N)Cc1ccc(O)cc1)C(=O)N[C@@H](CC(N)=O)C(=O)N[C@@H](CO)C(=O)N[C@@H](Cc1ccccc1)C(=O)NNC(=O)N[C@@H](CC(C)C)C(=O)N[C@@H](CCCNC(=N)NC)C(=O)N[C@@H](Cc1ccccc1)C(N)=O (H-[dY]NINSF[azaGly]L[Arg(Me)]F-NH2)
IC50 [pM]: 460

----------
// reported pIC50 per item
assayed.target: KiSS-1 receptor (Homo sapiens, UniProt Q969F8)
Sequence (Q969F8 whole entry): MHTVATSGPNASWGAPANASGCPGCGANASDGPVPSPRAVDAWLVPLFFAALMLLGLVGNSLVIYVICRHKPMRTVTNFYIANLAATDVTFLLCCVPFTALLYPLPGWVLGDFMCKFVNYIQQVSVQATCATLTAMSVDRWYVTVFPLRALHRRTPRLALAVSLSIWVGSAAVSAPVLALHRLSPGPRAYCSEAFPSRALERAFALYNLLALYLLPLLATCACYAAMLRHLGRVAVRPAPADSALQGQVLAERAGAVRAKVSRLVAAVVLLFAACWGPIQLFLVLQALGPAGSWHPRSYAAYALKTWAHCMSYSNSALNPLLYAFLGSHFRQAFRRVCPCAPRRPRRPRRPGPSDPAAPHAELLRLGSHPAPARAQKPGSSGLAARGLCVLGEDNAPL
pIC50: −log10 of the molar value. Non-standard residues stand in square brackets, D forms with d. Residues, ends and D or L forms follow the SMILES beside them. 2Nal = N[C@@H](Cc1ccc2ccccc2c1)C(=O)O; Arg(Me) = CNC(=N)NCCC[C@H](N)C(=O)O; 3Pal = N[C@@H](Cc1cccnc1)C(=O)O; 4Pal = N[C@@H](Cc1ccncc1)C(=O)O; d4Pal = N[C@H](Cc1ccncc1)C(=O)O; azaGly = NNC(=O)O

compound: CC(C)C[C@H](NC(=O)CNC(=O)[C@H](Cc1ccccc1)NC(=O)[C@H](CO)NC(=O)[C@H](CC(N)=O)NC(=O)[C@H](Cc1c[nH]c2ccccc12)NC(=O)[C@H](CC(N)=O)NC(=O)[C@@H](N)Cc1ccc(O)cc1)C(=O)N[C@@H](CCCNC(=N)N)C(=O)N[C@@H](Cc1ccccc1)C(N)=O
pIC50: 10.09

compound: CNC(=N)NCCC[C@H](NC(=O)[C@H](CC(C)C)NC(=O)NNC(=O)[C@H](Cc1ccccc1)NC(=O)[C@H](CO)NC(=O)[C@H](CC(N)=O)NC(=O)[C@H](Cc1ccc2ccccc2c1)NC(=O)[C@H](CC(N)=O)NC(=O)[C@H](N)Cc1ccc(O)cc1)C(=O)N[C@@H](Cc1ccccc1)C(N)=O (H-[dY]N[2Nal]NSF[azaGly]L[Arg(Me)]F-NH2)
pIC50: 9.89

compound: CC[C@H](C)[C@H](NC(=O)[C@H](CC(N)=O)NC(=O)[C@H](N)Cc1ccc(O)cc1)C(=O)N[C@@H](CC(N)=O)C(=O)N[C@@H](CO)C(=O)N[C@@H](Cc1ccccc1)C(=O)NNC(=O)N[C@@H](CC(C)C)C(=O)N[C@@H](CCCNC(=N)NC)C(=O)N[C@@H](Cc1ccccc1)C(N)=O (H-[dY]NINSF[azaGly]L[Arg(Me)]F-NH2)
pIC50: 9.37

compound: CNC(=N)NCCC[C@H](NC(=O)[C@H](CC(C)C)NC(=O)NNC(=O)[C@H](Cc1ccccc1)NC(=O)[C@H](CO)NC(=O)[C@H](CC(N)=O)NC(=O)[C@H](Cc1cccnc1)NC(=O)[C@H](CC(N)=O)NC(=O)[C@H](N)Cc1ccc(O)cc1)C(=O)N[C@@H](Cc1ccccc1)C(N)=O (H-[dY]N[3Pal]NSF[azaGly]L[Arg(Me)]F-NH2)
pIC50: 9.15

compound: CNC(N)=NCCC[C@H](NC(=O)[C@H](CC(C)C)NC(=O)CC(=O)N[C@H](Cc1ccccc1)NC(=O)[C@H](CO)NC(=O)[C@H](CC(N)=O)NC(=O)[C@H](Cc1c[nH]c2ccccc12)NC(=O)[C@H](CC(N)=O)NC(=O)[C@H](N)Cc1ccc(O)cc1)C(=O)N[C@@H](Cc1ccccc1)C(N)=O
pIC50: 9.29

compound: CNC(N)=NCCC[C@H](NC(=O)[C@H](CC(C)C)NC(=O)NNC(=O)[C@H](Cc1ccccc1)NC(=O)[C@H](CO)NC(=O)[C@H](CC(N)=O)NC(=O)[C@H](CC1CCCCC1)NC(=O)[C@H](CC(N)=O)NC(=O)[C@H](N)Cc1ccc(O)cc1)C(=O)N[C@@H](Cc1ccccc1)C(N)=O
pIC50: 9.72

compound: CNC(N)=NCCC[C@H](NC(=O)[C@H](CC(C)C)NC(=O)CNC(=O)[C@H](Cc1ccccc1)NC(=O)[C@H](CO)NC(=O)[C@H](CC(N)=O)NC(=O)[C@H](Cc1c[nH]c2ccccc12)NC(=O)[C@H](CC(N)=O)NC(=O)[C@H](N)Cc1ccc(O)cc1)C(=O)N[C@@H](Cc1ccccc1)C(N)=O
pIC50: 9.96

compound: CNC(N)=NCCC[C@H](NC(=O)[C@H](CC(C)C)NC(=O)NNC(=O)[C@H](Cc1ccccc1)NC(=O)[C@H](CO)NC(=O)[C@H](CC(N)=O)NC(=O)[C@@H](Cc1ccncc1)NC(=O)[C@H](CC(N)=O)NC(=O)[C@H](N)Cc1ccc(O)cc1)C(=O)N[C@@H](Cc1ccccc1)C(N)=O (H-[dY]N[d4Pal]NSF[azaGly]L[Arg(Me)]F-NH2)
pIC50: 9.55

compound: CNC(N)=NCCC[C@H](NC(=O)[C@H](CC(C)C)NC(=O)NNC(=O)[C@H](Cc1ccccc1)NC(=O)[C@H](CO)NC(=O)[C@H](CC(N)=O)NC(=O)[C@@H](NC(=O)[C@H](CC(N)=O)NC(=O)[C@H](N)Cc1ccc(O)cc1)[C@@H](C)O)C(=O)N[C@@H](Cc1ccccc1)C(N)=O (H-[dY]NTNSF[azaGly]L[Arg(Me)]F-NH2)
pIC50: 9.07

compound: CNC(N)=NCCC[C@H](NC(=O)[C@H](CC(C)C)NC(=O)NNC(=O)[C@H](Cc1ccccc1)NC(=O)[C@H](CO)NC(=O)[C@H](CC(N)=O)NC(=O)[C@H](Cc1ccncc1)NC(=O)[C@H](CC(N)=O)NC(=O)[C@H](N)Cc1ccc(O)cc1)C(=O)N[C@@H](Cc1ccccc1)C(N)=O (H-[dY]N[4Pal]NSF[azaGly]L[Arg(Me)]F-NH2)
pIC50: 9.52

compound: CNC(N)=NCCC[C@H](NC(=O)[C@H](CC(C)C)NC(=O)NNC(=O)[C@H](Cc1ccccc1)NC(=O)[C@H](CO)NC(=O)[C@H](CC(N)=O)NC(=O)[C@@H](Cc1c[nH]c2ccccc12)NC(=O)[C@H](CC(N)=O)NC(=O)[C@H](N)Cc1ccc(O)cc1)C(=O)N[C@@H](Cc1ccccc1)C(N)=O
pIC50: 9.72
